- Target system: cGMP-PDE V (Homo sapiens)
- Construct: isolated from cardiovascular tissues (heart and aorta)
- Assay summary: cGMP-PDE V inhibition (isozyme isolated from cardiovascular tissue)
- Source text: The cGMP-PDE and other PDE isozymes were isolated from cardiovascular tissues (heart and aorta) of various animal species and man by anion-exchange and affinity chromatography as described by Silver et al., Sec. Messeng. Phos. […] Cyclic Nucleotide Res. 10:69-92.
Measurement kind: IC50 (nM)
Answers are plain numbers, in nM.

Look over these answered cases.
{"columns": ["Compound", "Unit", "IC50"],
 "data": [
  ["CCc1[nH]n(C2CCCC2)c2nc(Cc3ccccn3)nc(=O)c1-2 [Example 9]", "nM", 540],
  ["CCc1[nH]n(C2CCCC2)c2nc(Cc3ccncc3)nc(=O)c1-2 [4(b)]", "nM", 650],
  ["CCc1[nH]n(C2CCCC2)c2nc(Cc3cccc(O)c3)nc(=O)c1-2 [Example 20]", "nM", 86],
  ["CCc1nn(C2CCCC2)c2nc(Cc3cccc(OCCN4CCOCC4)c3)[nH]c(=O)c12 [21(c)]", "nM", 420],
  ["CCc1[nH]n(C2CCCC2)c2nc(Cc3ccc(OC)cc3)nc(=O)c1-2 [Example 6]", "nM", 23],
  ["CCc1[nH]n(C2CCCC2)c2nc(Cc3ccc(OC)c(OC)c3)nc(=O)c1-2 [3(b)]", "nM", 22],
  ["CCc1nn(C2CCCC2)c2nc(Cc3ccc(OCCN4CCOCC4)cc3)[nH]c(=O)c12 [10(b)]", "nM", 270],
  ["CCc1[nH]n(C2CCCC2)c2nc(Cc3cccnc3)nc(=O)c1-2 [Example 13]", "nM", 660]
]}

Next compound, please.
Query string: Bench note: what IC50 did CCc1[nH]n(C2CCCC2)c2nc(Cc3ccc([N+](=O)[O-])cc3)nc(=O)c1-2 [25(a)] show?
Result string: 76

* * *

- Target system: cGMP-PDE V (Homo sapiens, UniProt O76074)
- Construct: isolated from cardiovascular tissues (heart and aorta); from tissue; host or cells: cardiovascular tissues (heart and aorta)
- Assay summary: cGMP-PDE V inhibition (isozyme isolated from cardiovascular tissue)
- Assay type: biochemical, various animal species and man
Measurement kind: pIC50
One number for each entry, as −log10 of the molar value.

Below, 2 compounds whose answers are already recorded.
{"columns": ["Chemical string", "pIC50"],
 "data": [
  ["CCc1[nH]n(C2CCCC2)c2nc(Cc3ccc(N)cc3)nc(=O)c1-2", 8.06],
  ["CCc1nn(C2CCCC2)c2nc(Cc3ccccc3)[nH]c(=O)c12", 8.00]
]}

Shift focus to the following entry.
Query string: Form field: reported pIC50 of "CCc1[nH]n(C2CCCC2)c2nc(Cc3ccc(O)cc3)nc(=O)c1-2"
Result string: 7.72

* * *

- Target system: cGMP-PDE V (Homo sapiens)
- Construct: isolated from cardiovascular tissues (heart and aorta)
- Assay summary: cGMP-PDE V inhibition (isozyme isolated from cardiovascular tissue)
// NB: equality with 300 nM counts as -1; only IC50 strictly below is 1

{"columns": ["Compound", "Category label"],
 "data": [
  ["CCc1[nH]n(C2CCCC2)c2nc(Cc3cccc(OC)c3)nc(=O)c1-2 [Example 19]", 1],
  ["CCc1[nH]n(C2CCCC2)c2nc(Cc3ccsc3)nc(=O)c1-2 [Example 31]", 1],
  ["CCc1[nH]n(C2CCCC2)c2nc(Nc3ccccc3)nc(=O)c1-2 [38(d)]", 1]
]}

Query string: Just wondering, is IC50 of CCc1nn(C2CCCC2)c2nc(Cn3cccc3)[nH]c(=O)c12 [Example 5] below 300 nM?
Result string: -1

Query string: How about this compound: CCc1[nH]n(C2CCCC2)c2nc(Cc3ccc(OCc4nnn[nH]4)cc3)nc(=O)c1-2 [11(b)]
Result string: -1

Query string: Query CCc1[nH]n(C2CCCC2)c2nc(Cc3ccc(OCC(=O)O)cc3)nc(=O)c1-2 [8(b)] next
Result string: -1

Query string: Here is the next compound: CCc1[nH]n(C2CCCC2)c2nc(Cc3ccc(C(F)(F)F)cc3)nc(=O)c1-2 [24(b)]
Result string: 1

Query string: Another: CCc1[nH]n(C2CCCC2)c2nc(CN3CCc4ccccc4C3)nc(=O)c1-2 [15(c)]
Result string: -1

* * *

- Target system: cGMP-PDE V (Homo sapiens, UniProt O76074)
- Construct: isolated from cardiovascular tissues (heart and aorta); from tissue; host or cells: cardiovascular tissues (heart and aorta)
- Assay summary: cGMP-PDE V inhibition (isozyme isolated from cardiovascular tissue)
- Assay type: biochemical, various animal species and man
- Cond: 0.1 μM; read-out: Percent Inhibition cGMP-PDE V
Outcome: YES for inhibition at 0.1 µM of at least 40%; NO for anything lower.

{"columns": ["Compound", "Category label"],
 "data": [
  ["CCc1[nH]n(C2CCCC2)c2nc(Cc3ccc(-n4ccnc4)cc3)nc(=O)c1-2 [36(b)]", "NO"]
]}

Query string: State whether the measured inhibition at 0.1 µM reaches 40%, counting equality as reaching it, for CCc1[nH]n(C2CCCC2)c2nc(Cc3ccccc3N)nc(=O)c1-2 [Example 34]
Result string: YES

Query string: What do you have for CCc1[nH]n(C2CCCC2)c2nc(Cc3ccccc3O)nc(=O)c1-2 [Example 30] ?
Result string: YES

Query string: Please answer likewise for CCc1[nH]n(C2CCCC2)c2nc(Cc3ccc(NS(C)(=O)=O)cc3)nc(=O)c1-2 [Example 29]
Result string: YES

Query string: Now the compound CCc1nn(C2CCCC2)c2nc(Cn3cnc4ccccc43)[nH]c(=O)c12 [12(b)]
Result string: NO

* * *

- Target system: cGMP-PDE V (Homo sapiens, UniProt O76074)
- Construct: isolated from cardiovascular tissues (heart and aorta); from tissue; host or cells: cardiovascular tissues (heart and aorta)
- Assay summary: cGMP-PDE V inhibition (isozyme isolated from cardiovascular tissue)
- Type: biochemical, various animal species and man
- Cond: 0.1 μM; read-out: Percent Inhibition cGMP-PDE V
- Excerpt: The cGMP-PDE and other PDE isozymes were isolated from cardiovascular tissues (heart and aorta) of various animal species and man by anion-exchange and affinity chromatography as described by Silver et al., Sec. Messeng. Phos. […] Cyclic Nucleotide Res. 10:69-92.
Answer 0 if inhibition at 0.1 µM is under 40%, and 1 if it is 40% or more.

{"columns": ["Chemical string", "Category label"],
 "data": [
  ["CCc1[nH]n(C2CCCC2)c2nc(Cc3ccc(N(C)C)cc3)nc(=O)c1-2", 0],
  ["CCc1[nH]n(C2CCCC2)c2nc(Cc3cccs3)nc(=O)c1-2", 1],
  ["Cc1[nH]n(C(C)(C)C)c2nc(Cc3ccccc3)nc(=O)c1-2", 0]
]}

Query string: Kindly determine if inhibition at 0.1 µM recorded for "CCc1[nH]n(C2CCCC2)c2nc(Oc3ccccc3)nc(=O)c1-2" is above or exactly 40%.
Result string: 0

Query string: Repeat for the following compound: "CCc1[nH]n(C2CCCC2)c2nc(Cc3ccccc3OC)nc(=O)c1-2"
Result string: 0

Query string: Also need "CCc1[nH]n(C2CCCC2)c2nc(Cc3ccc(OC(=O)c4ccc(CN(CC)CC)cc4)cc3)nc(=O)c1-2" , thanks.
Result string: 1
